Each entry below carries its reported Response.
# Measured target: T1, biotinylated recombinant human IL-12Rβ2 (human, UniProt Q99665 24-622, random biotinylated)
# T1 construct: Recombinant protein produced in-house; also called hIL-12RB2; human IL-12RB2
# T1 sequence: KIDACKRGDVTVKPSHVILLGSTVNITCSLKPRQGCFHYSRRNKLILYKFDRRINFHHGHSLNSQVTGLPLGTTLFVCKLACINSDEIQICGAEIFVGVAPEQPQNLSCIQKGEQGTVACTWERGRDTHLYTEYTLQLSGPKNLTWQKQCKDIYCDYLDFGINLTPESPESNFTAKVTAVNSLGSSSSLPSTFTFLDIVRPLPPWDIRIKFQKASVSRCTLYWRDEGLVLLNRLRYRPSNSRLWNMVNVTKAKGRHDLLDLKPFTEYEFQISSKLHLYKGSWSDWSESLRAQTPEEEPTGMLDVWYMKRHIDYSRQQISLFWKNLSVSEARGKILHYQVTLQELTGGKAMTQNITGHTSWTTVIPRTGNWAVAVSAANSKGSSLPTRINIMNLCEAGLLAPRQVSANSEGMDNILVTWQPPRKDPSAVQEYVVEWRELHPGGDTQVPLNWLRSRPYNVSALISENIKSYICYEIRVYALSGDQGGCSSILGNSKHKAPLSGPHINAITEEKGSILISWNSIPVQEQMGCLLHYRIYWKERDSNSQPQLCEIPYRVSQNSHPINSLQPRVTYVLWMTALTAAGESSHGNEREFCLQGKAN
# Assay method text: BLI, P.E., off-rate ranking
Answer as a number with no unit attached.

Before answering, review these 5 worked examples.
{"columns": ["Binder", "Response"],
 "data": [
  ["anti-IL-12Rβ2 VHH clone 3CRH28 (clone ID 20380) (VHH, not shown: small tags and cut ends, periplasmic extract) VHH: QVQLQESGGGLVQPGGSLTLSCAASGFTFSSNAMSWVRQAPGKGLEWVSSISSGGGTTYYTDSVKGRFTTARDNAKNTLYLRMNSLKPEDTAVYYCSKSSTGSGSRGQGTQVTVSS", 0.4],
  ["anti-IL-12Rβ2 VHH clone 3CRHS166 (clone ID 20439) (VHH, not shown: small tags and cut ends, periplasmic extract) VHH: QVQLQESGGGLVQSGGSLRLSCVSSQTLVGIEAMGWYRQAPGKQRELVALITLNGGTFYADSVKGRFTISRDVAEHMLYLEMNSLNPEDTAVYFCVAGVESDNEEPTYWGQGTQVTVSS", 0.149],
  ["anti-IL-12Rβ2 VHH clone 3CRHS55 (clone ID 20423) (VHH, not shown: small tags and cut ends, periplasmic extract) VHH: QVQLQESGGGLVQAGGSLNLSCTASGSIISIYNMDWYRQAPGNQREWVASITSNGDSYYDGSAKGRFTISRDNAKMTVYLQMNSLKPEDTAVYYCKVPTENGNYWGQGTQVTVSS", 0.204],
  ["anti-IL-12Rβ2 VHH clone 3CRH68 (clone ID 20388) (VHH, not shown: small tags and cut ends, periplasmic extract) VHH: QVQLQESGGGLVQPGGSLRLSCTASGSILSIYNMDWYRQVPGNQREWVASITPSGDPYYDGSVKGRFTISRDNAKMMVYLQMNSLKPEDTAVYYCKVPTEKGNYWGQGTQVTVSS", 0.426],
  ["anti-IL-12Rβ2 VHH clone 3CRH17 (clone ID 20376) (VHH, not shown: small tags and cut ends, periplasmic extract) VHH: QVQLQESGGGLVQAGGSLVLSCAASGSAALIFLMSWYRQAPGKQRELVAEVSRYGSTTYADSVEGRFTISRDNAKNIVDLQMNSLKPEDTAVYYCKADQYYGDSLRSSWGRGTQVTVSS", 0.53]
]}

# next binder below
anti-IL-12Rβ2 VHH clone 3CRHS1 (clone ID 20412) (VHH, not shown: small tags and cut ends, periplasmic extract) VHH: QVQLQESGGGSVQPGGSLRLSCAASGFTFSTSGMHWFRQAPGKGLEWVSSIGIIVDSSYYASSVKGRFTISRDNAKNTLYLQMNSLKSEDTAVYYCSKDPTGSSRGQGTQVTVSS has a reported Response of 0.3
